target: CDK9/CycT1 (Homo sapiens (Human)); assay: CDK9 kinase assay, high ATP concentration (5 mM ATP); type: biochemical; settings: 1.5 nM CDK9, read-out: CDK9 High ATP conc. (IC50)
Sequence (P50750 whole entry): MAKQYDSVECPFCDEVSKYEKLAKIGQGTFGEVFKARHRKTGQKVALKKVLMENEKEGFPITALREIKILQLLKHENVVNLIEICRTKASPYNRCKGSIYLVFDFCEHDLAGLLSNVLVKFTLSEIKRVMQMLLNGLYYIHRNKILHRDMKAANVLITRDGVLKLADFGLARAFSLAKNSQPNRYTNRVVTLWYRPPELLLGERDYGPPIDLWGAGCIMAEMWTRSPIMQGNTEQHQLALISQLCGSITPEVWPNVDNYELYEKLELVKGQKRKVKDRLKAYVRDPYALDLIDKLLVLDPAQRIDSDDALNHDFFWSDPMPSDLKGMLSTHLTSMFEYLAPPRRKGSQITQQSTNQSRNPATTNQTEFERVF
Sequence (O60563 whole entry partner): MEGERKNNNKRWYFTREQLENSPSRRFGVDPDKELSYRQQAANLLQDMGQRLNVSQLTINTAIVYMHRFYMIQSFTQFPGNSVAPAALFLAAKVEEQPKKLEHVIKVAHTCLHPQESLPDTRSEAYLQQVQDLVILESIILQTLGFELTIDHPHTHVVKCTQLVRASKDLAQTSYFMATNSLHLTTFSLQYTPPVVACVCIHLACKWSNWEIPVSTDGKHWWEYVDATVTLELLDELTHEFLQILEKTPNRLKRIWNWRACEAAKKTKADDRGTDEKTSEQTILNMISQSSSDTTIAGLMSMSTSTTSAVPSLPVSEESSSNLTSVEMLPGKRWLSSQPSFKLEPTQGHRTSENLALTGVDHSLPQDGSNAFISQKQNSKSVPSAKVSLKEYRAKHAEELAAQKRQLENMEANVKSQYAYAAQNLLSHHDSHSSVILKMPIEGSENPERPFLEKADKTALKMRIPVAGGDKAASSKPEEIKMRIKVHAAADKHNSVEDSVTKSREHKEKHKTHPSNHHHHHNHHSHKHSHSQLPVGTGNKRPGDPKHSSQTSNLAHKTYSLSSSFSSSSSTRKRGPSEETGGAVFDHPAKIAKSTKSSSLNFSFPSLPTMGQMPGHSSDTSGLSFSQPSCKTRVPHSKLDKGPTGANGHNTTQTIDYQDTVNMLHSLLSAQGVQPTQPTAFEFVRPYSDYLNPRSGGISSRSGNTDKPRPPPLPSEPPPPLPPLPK
REPORTED_ENDPOINT: IC50 (nM)
Numbers only here, please. The scale is nM.

Take a look at these entries with their results.
1. CC(=O)N[C@@H]1CCC[C@H](C(=O)Nc2cc(-c3cnn4c3CC(C)C4)c(Cl)cn2)C1 (single isomer, unassigned) [Example 42] = 26
2. CC(=O)N[C@@H]1CCC[C@H](C(=O)Nc2cc(-c3cnc4n3CC(C)(C)C4)c(F)cn2)C1 [Example 50] = 5
3. CC(=O)N[C@@H]1CCC[C@H](C(=O)Nc2cc(-c3cnn4c3CC(C)(C)C4)ncn2)C1 [Example 30] = 606
4. CC1(C)Cc2c(-c3ccnc(NC(=O)[C@H]4C[C@@H](O)C4)c3)cnn2C1 [Example 26] = 93
5. CC(=O)N[C@@H]1CCC[C@H](C(=O)Nc2cc(-c3cnn4c3CC(C)(C)CC4)ccn2)C1 [Example 44] = 8
6. O=C(Nc1cc(-c2cnn3c2CCCC3)c(Cl)cn1)[C@H]1CCC[C@@H](NC(=O)[C@@H]2CCOC2)C1 [Example 33] = 19
7. CC(=O)N[C@@H]1CCC[C@H](C(=O)Nc2cc(-c3cnn4c3CCCC4)c(F)cn2)C1 [Example 63] = 51
8. CC1(C)Cc2ncc(-c3cc(NC(=O)[C@H]4CCC[C@@H](NC(=O)C5COC5)C4)ncc3Cl)n2C1 [Example 57] = 4

[in] Kindly indicate its recorded IC50. Item: O=C(Nc1cc(-c2cnn3c2CCCC3)c(Cl)cn1)[C@@H]1CCCNC1 [Example 5]
[out] 270

[in] Kindly indicate its recorded IC50. Item: Cc1cnc(NC(=O)[C@H]2CCC[C@@H](NC(=O)CO)C2)cc1-c1cnn2c1CC(C)(C)C2 [Example 75]
[out] 29

[in] Kindly indicate its recorded IC50. Item: CC(=O)N[C@@H]1CCC[C@H](C(=O)Nc2cc(-c3cnn4c3CCCCC4)c(Cl)cn2)C1 [Example 66]
[out] 23

[in] Kindly indicate its recorded IC50. Item: CC(=O)N[C@@H]1CCC[C@H](C(=O)Nc2cc(-c3cnn4c3OCCC4)c(Cl)cn2)C1 [Example 8]
[out] 120

[in] Kindly indicate its recorded IC50. Item: CC(=O)N[C@@H]1CCC[C@H](C(=O)Nc2cc(-c3cnn4c3CCCC4)ccn2)C1 [Example 3]
[out] 210

[in] Kindly indicate its recorded IC50. Item: CC(=O)N[C@@H]1CCC[C@H](C(=O)Nc2cc(-c3cn[nH]c3CC(C)(C)CO)c(Cl)cn2)C1 [Example 82a]
[out] 139

###

Biological target: CDK9/CycT1 (Homo sapiens (Human))
Test: CDK9 kinase assay, ATP concentration at Km (mobility shift, Caliper LC3000)
Type: biochemical
Details: 6 μM ATP, 3 nM CDK9/CycT1; read-out: CDK9 ATP conc. at Km (IC50)
Experimental: Activity of CDK9 was determined in-vitro using a mobility shift assay on a Caliper LC3000 reader (Caliper/PerkinElmer), which measures fluorescence of a phosphorylated and unphosphorylated fluorescent peptide substrate and calculates a ratiometric value to determine percent turnover. Phosphorylation of the peptide in the presence and absence of the compound of interest was determined. […]
REPORTED_ENDPOINT: IC50 (nM)
Numbers only here, please. The scale is nM.

1. CC(=O)N[C@H]1CCC[C@H](C(=O)Nc2cc(-c3cnn4c3CC(C)(C)C4)c(F)cn2)C1 (relative stereo) [Example 84] = 28

[in] Write IC50 of CC1(C)Cc2c(-c3ccnc(NC(=O)[C@H]4CCC[C@@H](NC(=O)C5(O)CC5)C4)c3)cnn2C1 [Example 17] ; system used: CDK9/CycT1 (Homo sapiens (Human))
[out] 4
